- assay name: Neurotoxicity against human SH-SY5Y cells assessed as cell viability at 10 to 40 uM after 24 hrs […] relative to control
- Type: toxicity, cell-based
- stated conditions: SH-SY5Y cells, read-out: Activity
endpoint label: viability at 24 h, up to 40 µM

[Q] If you can, please state the reported viability at 24 h, up to 40 µM value of `Cc1cccc(/C=C/C(=O)c2cccc(O)c2)c1` .
[A] 73.6 to 77.4%

* * *

- System: SH-SY5Y
- assay name: Neuroprotective activity against amyloid beta (1 to 42)-induced neurodegeneration in human SH-SY5Y cells assessed as cell viability at 10 uM preincubated for 4 hrs followed by amyloid beta (1 to 42) addition and measured after 48 hrs by MTS assay (reference value: 60.4%)
- Format: functional
- stated conditions: read-out: Activity
endpoint label: viability at 10 µM

>>> print(df.to_string())
                                   compound      endpoint_label  recorded_measurement
0  COCOc1ccc(C(=O)/C=C/c2ccc(OC)cc2)c(O)c1OCOC  viability at 10 µM           72 to 84.9%
1      Cc1cccc(/C=C/C(=O)c2ccc(O)c(O)c2O)c1  viability at 10 µM          96.5 to 106%
2     COc1ccc(/C=C/C(=O)c2ccc(O)c(O)c2O)cc1  viability at 10 µM          96.5 to 106%
3     O=C(/C=C/c1cccc(Cl)c1)c1ccc(O)c(O)c1O  viability at 10 µM          96.5 to 106%
4  COc1cc(/C=C/C(=O)CC(=O)/C=C/c2ccc(O)c(OC)c2)ccc1O  viability at 10 µM                   76%
5  O=C(O[C@@H]1Cc2c(O)cc(O)cc2O[C@@H]1c1cc(O)c(O)c(O)c1)c1cc(O)c(O)c(O)c1 [EPIGALOCATECHIN GALLATE]  viability at 10 µM                 92.5%
6  COCOc1ccc(C(=O)/C=C/c2cccc(Cl)c2)c(O)c1OCOC  viability at 10 µM           72 to 84.9%

[Q] If you can, please state the reported viability at 10 µM value of `COCOc1ccc(C(=O)/C=C/c2cccc(C)c2)c(O)c1OCOC` .
[A] 72 to 84.9%
